- assayProcedure: Toxicity in the in vitro HSV-2 test
quantityName: CC50 (µg/mL)
Give just the numeric value; µg/mL need not be written.

Answer with the recorded CC50 for the molecule listed here: CC(C)(C)C(=O)OCOP(=O)(O)COCCn1cnc2c(N)ncnc21 100

Answer with the recorded CC50 for the molecule listed here: CC(C)OP(=O)(COCCn1cnc2c(N)ncnc21)Oc1ccccc1 (stereo not shown) 100

====

- assayProcedure: in vitro
quantityName: CC50 (µg/mL)
Give just the numeric value; µg/mL need not be written.

Answer with the recorded CC50 for the compound listed here: CCC(=O)OCOP(=O)(COCCn1cnc2c(N)ncnc21)OCOC(=O)CC [Example 12, PMEA, di-(propionyloxymethyl ester)] 100

Answer with the recorded CC50 for the compound listed here: CC(C)(C)C(=O)OCOP(=O)(COCCn1cnc2c(N)ncnc21)OCOC(=O)C(C)(C)C [Example 9, PMEA, di(pivaloyloxymethyl ester)] 100

Answer with the recorded CC50 for the compound listed here: CC(C)C(=O)OCOP(=O)(COCCn1cnc2c(N)ncnc21)OCOC(=O)C(C)C [Example 13, PMEA, di-(isobutyrloxymethyl ester)] 100
